For each of the binders below, state its interaction score.
# system-name: T1, 4H3632-bH
# T1 chain: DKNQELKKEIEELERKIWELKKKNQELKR
# assay-name: two-hybrid library CCNG1;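 note: natural log of median RNA to DNA barcode read ratio; higher means stronger binding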
Give bare numbers.

Reference set (2 entries):
> print(dat)
                                     binder     property.label  result
1  DEIQELEKENEELERENWELEKEIQELER [4H145-bH]  interaction score   -1.44
2  DKIQELKKKNEELKRKNWELKKKIQELKR [4H3070-bH]  interaction score  -0.214

# ---- query binder ----
In: Using the record for DEIQELEKKIEELKRENWELEKKIQELKR [4H342-bH] , state its measured interaction score.
Out: 1.55

Attribution: paper PMC10397247
